Listed here are compounds together with their documented Percentage of motility inhibition 0 h.
# Test system: C. elegans
# EXPERIMENTAL CONTEXT: Table S2, C. elegans SS assay, 110 μM, 0 h, averages of 4 data points
QUANTITY KIND: Percentage of motility inhibition 0 h (%)

O.O=C([O-])CC(O)(CC(=O)[O-])C(=O)[O-].[K+].[K+].[K+] [Citric acid (tripotassium hydrate)]	28
COC(=O)[C@]12CCC(C)(C)C[C@H]1C1=CC[C@@H]3[C@@]4(C)CCC(=O)C(C)(C)[C@@H]4CC[C@@]3(C)[C@]1(C)CC2 [Methyl oleanonate]	4
C[C@H]1O[C@@H](O[C@H]2CC[C@@]3(C)[C@@H](CC[C@]4(C)[C@@H]3C=C[C@]35OC[C@@]6(CCC(C)(C)C[C@H]63)[C@H](O)C[C@]54C)[C@]2(C)CO)[C@H](O)[C@@H](O[C@@H]2O[C@H](CO)[C@@H](O)[C@H](O)[C@H]2O)[C@H]1O [Saikosaponin D]	34
COc1ccc(-c2coc3cc(OC)ccc3c2=O)cc1 [4',7‐Dimetho xyisoflavone]	21
COc1cc(O)c2c(c1)O[C@H](c1cc(O)cc(O)c1)CC2=O [Blumeatin]	21
O=C1C[C@@H](c2ccccc2)Oc2cc(O[C@@H]3O[C@H](CO)[C@@H](O)[C@H](O)[C@H]3O)cc(O)c21 [Pinocembrin‐7‐O‐β‐D‐glucopyranoside]	0
